The reported measurements were obtained from patent US20240382629A1.

- System: U87 tumor
- measurement.notes: PET imaging and tissue biodistribution in U87 tumor-bearing mice
- Assay type: in vivo, mouse
- experimental.parameters: untitled table; radiolabel and time not given; in %ID/g
measured.endpoint: Biodistribution: Lung

(a) N#C[C@@H]1CCCN1C(=O)CNC(=O)c1ccnc2ccc(OCCCN3CC4CN(C(=O)C(CCNC(=O)c5ccc(F)nc5)NC(=O)CN5CCN(CC(=O)O)CCN(CC(=O)O)CCN(CC(=O)O)CC5)CC4C3)cc12 (some centres unmarked)
(b) N#CC1CCCN1C(=O)CNC(=O)c1ccnc2ccc(OCCCNC(=O)CCc3cn(CC[C@H](NC(=O)c4ccc(F)nc4)C(=O)NCCNC(=O)CN4CCN(CC(=O)O)CCN(CC(=O)O)CCN(CC(=O)O)CC4)nn3)cc12 (some centres unmarked)
**Q:** In the pair a and b , the larger recorded Biodistribution: Lung belongs to which? Mark your answer with the label of the selected entry.
**A:** b

* * *

- System: U87 tumor
- measurement.notes: PET imaging and tissue biodistribution in U87 tumor-bearing mice
- Type: in vivo, mouse
- experimental.parameters: untitled table; radiolabel and time not given; in %ID/g
measured.endpoint: Biodistribution: Bone

compound	val
N#CC1CCCN1C(=O)CNC(=O)c1ccnc2ccc(OCCCNC(=O)CCc3cn(CC[C@H](NC(=O)c4ccc(F)nc4)C(=O)NCCNC(=O)CN4CCN(CC(=O)O)CCN(CC(=O)O)CCN(CC(=O)O)CC4)nn3)cc12 (some centres unmarked) [SRI-07-56]	4.47
N#C[C@@H]1CCCN1C(=O)CNC(=O)c1ccnc2ccc(OCCCNC(=O)CCOCCOCCOCCNC(=O)C(CCNC(=O)c3ccc(F)nc3)NC(=O)CN3CCN(CC(=O)O)CCN(CC(=O)O)CCN(CC(=O)O)CC3)cc12 (some centres unmarked) [SRI-08-27]	2.83
N#C[C@@H]1CCCN1C(=O)CNC(=O)c1ccnc2ccc(OCCCNC(=O)C(CCNC(=O)c3ccc(F)nc3)NC(=O)CN3CCN(CC(=O)O)CCN(CC(=O)O)CCN(CC(=O)O)CC3)cc12 (some centres unmarked) [SRI-08-15]	5.97

(a) N#C[C@@H]1CCCN1C(=O)CNC(=O)c1ccnc2ccc(OCCCN3CC4CN(C(=O)C(CCNC(=O)c5ccc(F)nc5)NC(=O)CN5CCN(CC(=O)O)CCN(CC(=O)O)CCN(CC(=O)O)CC5)CC4C3)cc12 (some centres unmarked) [SRI-08-37]
(b) N#CC1CCCN1C(=O)CNC(=O)c1ccnc2ccc(OCCCNC(=O)CCc3cn(CCCC[C@H](NC(=O)c4ccc(F)nc4)C(=O)NCCNC(=O)CN4CCN(CC(=O)O)CCN(CC(=O)O)CCN(CC(=O)O)CC4)nn3)cc12 (some centres unmarked) [SRI-08-35]
**Q:** Thinking about recorded Biodistribution: Bone values, which is higher, a or b ? Selection: enter the item's label.
**A:** a

* * *

- tested.on: FAP (Homo sapiens (Human), UniProt Q12884)
- Sequence (Q12884 whole entry): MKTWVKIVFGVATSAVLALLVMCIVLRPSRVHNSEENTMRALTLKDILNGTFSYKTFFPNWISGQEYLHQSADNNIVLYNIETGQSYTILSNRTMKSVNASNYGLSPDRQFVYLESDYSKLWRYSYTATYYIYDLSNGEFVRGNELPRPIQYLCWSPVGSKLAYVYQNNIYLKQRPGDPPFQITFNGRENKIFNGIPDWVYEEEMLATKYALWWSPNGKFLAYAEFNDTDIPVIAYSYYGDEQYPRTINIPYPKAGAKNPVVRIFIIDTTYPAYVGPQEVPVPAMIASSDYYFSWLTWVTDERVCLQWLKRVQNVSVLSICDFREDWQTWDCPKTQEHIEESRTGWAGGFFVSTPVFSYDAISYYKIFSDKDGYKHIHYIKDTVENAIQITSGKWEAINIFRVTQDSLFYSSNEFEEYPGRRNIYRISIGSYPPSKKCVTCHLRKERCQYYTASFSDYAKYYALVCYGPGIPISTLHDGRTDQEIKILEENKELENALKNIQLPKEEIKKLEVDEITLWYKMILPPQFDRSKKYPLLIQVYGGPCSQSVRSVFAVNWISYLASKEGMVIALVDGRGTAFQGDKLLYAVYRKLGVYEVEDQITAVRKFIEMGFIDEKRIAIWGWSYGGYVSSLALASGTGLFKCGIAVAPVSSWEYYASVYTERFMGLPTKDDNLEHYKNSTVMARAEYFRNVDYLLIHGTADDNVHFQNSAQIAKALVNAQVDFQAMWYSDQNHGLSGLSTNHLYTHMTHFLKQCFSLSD
- measurement.notes: FAP inhibition assay (recombinant enzyme, Z-Gly-Pro-AMC substrate)
- Format: biochemical
- experimental.parameters: Table 3; read-out: FAP Ki
pKi: −log10 of the molar value.
measured.endpoint: pKi

Answered examples (4):
compound	pKi
N#C[C@@H]1CCCN1C(=O)CNC(=O)c1ccnc2ccc(OCCCNC(=O)CNC(=O)[C@H](CCCCNC(=O)c3ccc(F)nc3)NC(=O)CN3CCN(CC(=O)O)CCN(CC(=O)O)CCN(CC(=O)O)CC3)cc12 [JHU1221804]	9.70
N#C[C@@H]1CCCN1C(=O)CNC(=O)c1ccnc2ccc(OCCCNC(=O)CCOCCOCCOCCOCCNC(=O)[C@H](CCCCNC(=O)c3ccc(F)nc3)NC(=O)CN3CCN(CC(=O)O)CCN(CC(=O)O)CCN(CC(=O)O)CC3)cc12 [JHU1221823]	9.92
N#C[C@@H]1CCCN1C(=O)CNC(=O)c1ccnc2ccc(F)cc12 [JHU1220450]	10.62
N#CC1CCCN1C(=O)CNC(=O)c1ccnc2ccc(OCCCNC(=O)CCc3cn(CCCC[C@H](NC(=O)CN4CCN(CC(=O)O)CCN(CC(=O)O)CC4)C(=O)NCCCOc4ccc5nccc(C(=O)NCC(=O)N6CCC[C@H]6C#N)c5c4)nn3)cc12 (stereo partly drawn) [SB-FAP-09]	10.00

(a) N#C[C@@H]1CCCN1C(=O)CNC(=O)c1ccnc2c(F)cccc12 [JHU1220502]
(b) N#C[C@@H]1CCCN1C(=O)CNC(=O)c1ccnc2ccc(OCCOCCNC(=O)[C@H](CCCCNC(=O)c3ccc(F)nc3)NC(=O)CN3CCN(CC(=O)O)CCN(CC(=O)O)CCN(CC(=O)O)CC3)cc12 [JHU1221803]
**Q:** Choose between a and b : whose measured pKi value is numerically larger? Mark your selection by writing its label.
**A:** b

* * *

- tested.on: FAP (Homo sapiens (Human), UniProt Q12884)
- measurement.notes: FAP inhibition assay (recombinant enzyme, Z-Gly-Pro-AMC substrate)
- Format: biochemical
- experimental.parameters: Table 3; read-out: FAP Ki
measured.endpoint: Ki (nM)

Use these answered entries as a reference point.
1) N#C[C@@H]1CC(F)(F)CN1C(=O)CNC(=O)c1ccnc2ccc(F)cc12 0.062
2) N#C[C@@H]1CCCN1C(=O)CNC(=O)c1ccnc2ccc(OCCCN(Cc3ccc(F)nc3)C(=O)CN3CCN(CC(=O)O)CCN(CC(=O)O)CCN(CC(=O)O)CC3)cc12 0.42

(P) N#C[C@@H]1CCCN1C(=O)CNC(=O)c1ccnc2ccc(OCCCNC(=O)[C@@H](CC(=O)O)NC(=O)[C@@H](CC(=O)O)NC(=O)c3ccc(F)nc3)cc12
(Q) N#C[C@@H]1C[C@H](F)CN1C(=O)CNC(=O)c1ccnc2ccc(F)cc12
**Q:** Could you tell me which of P and Q has the lower Ki reading? Write the label of whichever entry you select.
**A:** Q
